Assay: small-molecule microarray binders of probe aShh, primary screen, biochemical, biotinylated probe, 635/667 nm fluorescence (AID 1114);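 note: probe is biotin-labelled aShh protein from a stem cell growth factor screen; measures binding of labelled protein to compounds printed on the slide; score merges feature fluorescence at 667 nm with signal-to-noise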
Conditions: higher = more signal
Quick reference: composite z-score of the listed items.
Answer with a bare number; do not write a unit.

Known composite z-score results, listed for orientation:
COMPOUND | MEASUREMENT
Cc1ccc(S(=O)(=O)c2cc3oc2CC[C@@H](CO)NC(=O)N(C)Cc2cn(nn2)C[C@H](Cc2ccccc2)NC3=O)cc1 | 0.483
CCOC(=O)C1=C[C@@H](c2ccccc2)N(S(=O)(=O)c2ccc(C)cc2)[C@H]1c1ccc(F)cc1 | 0.0929
COc1cccc([C@@H]2[C@@H](C)CC[C@H]3C(=O)N4[C@H](c5cccc(OC)c5)[C@@H](C)CC[C@H]4C(=O)N23)c1 | -0.2

Lookup: Consider the compound shown here: C=CC[C@]1(C(=O)N2CCCCC2)N=C(c2ccc(OCCCO)cc2)O[C@H]1c1ccccc1N=[N+]=[N-] What is its recorded composite z-score?
Found: 0.195

###

Assay: P. aeruginosa biofilm formation inhibitors, primary screen, strain PAO1, LB-PBS medium, absorbance 600 nm (AID 1176); note: test concentration not given here
Settings: P. aeruginosa PAO1 growth/biofilm, A600, 12 h; higher = more signal
RECORDED_ENDPOINT: z-score
Form field (numeric): enter value without unit.

Here's what some known entries look like.
MOLECULE | z-score
O=C(CS)NCCCCCCNC(=O)[C@@H]1C[C@@H]2C(=O)N[C@@H](Cc3ccccc3)C(=O)N2[C@@H]1c1ccc(O)cc1 | -0.239
COc1ccc([Si](C)(C)[C@H]2[C@H](CC(=O)N(CCO)Cc3ccccc3)O[C@@]3(C(=O)N(C)c4ccccc43)[C@@H]2C)cc1 | 0.72
COc1cc(Cc2cc3c(c(CCc4ccccc4)n2)[Si](C(C)C)(C(C)C)OC3)cc(OC)c1OC | 0.726
C#CCNC(/C=C/c1ccccc1)CO (stereo not given) | 0.449

--- query ---
Lookup: Field request: z-score | item: COCCOC(=O)N1C(=O)[C@@]2(c3cc(C#CCCO)ccc31)[C@H](c1ccc(O)cc1)N1[C@H](c3ccccc3)[C@H](c3ccccc3)OC(=O)[C@H]1[C@@H]2C(=O)Nc1nc2ccccc2s1
Found: 0.485

###

Target: Fibroblast growth factor 2 (Homo sapiens)
Assay: FGF2 binders on small-molecule microarrays, primary screen, biochemical, small-molecule microarray, 635/667 nm fluorescence (AID 1133)
Settings: small-molecule microarray binding, FGF2, fluorescence 635/667; higher = more signal
Classification field: enter y for composite z-score values not below 0.8, n for values below it.

Lookup: Given the entry CO[C@H]1O[C@H](CO)[C@@H](OC(=O)Nc2ccccc2)[C@H](OC(=O)Nc2ccc3c(c2)OCO3)[C@@H]1OC(=O)Nc1ccc2c(c1)OCO2 , answer whether its composite z-score meets or surpasses 0.8.
Found: n

Lookup: API: above_or_equal(metric=composite z-score, cutoff=0.8) for item C=CCN(C(=O)C1N(c2ccc(CCO)cc2)C(=O)C2C(C(=O)O)C3C=CC21O3)C(C)(C)C (stereo not given)
Found: n

Lookup: Determine whether this compound has composite z-score no lower than 0.8: COc1cccc([C@H]2N[C@H](C(=O)O)CC[C@@H]2C)c1
Found: n

Lookup: API: above_or_equal(metric=composite z-score, cutoff=0.8) for item O=C1O[C@H](c2ccccc2)[C@H](c2ccccc2)N2[C@H]1[C@@H](C(=O)Nc1nc3ccccc3s1)[C@]1(C(=O)Nc3ccc(C#CC4(O)CCCCCC4)cc31)[C@H]2c1ccc(O)cc1
Found: y

Lookup: Hello, I need to know if O=C1OCC=C[C@H]2OC34C=CCN(Cc5ccccc5)C(=O)[C@H]3N(CCO)C(=O)[C@@H]4[C@@H]12 (stereo not given in full) has measured composite z-score not below 0.8. Thanks!
Found: n

Lookup: Is composite z-score at least 0.8? Consider O=C(CS)NCCCCCNC(=O)[C@H]1C[C@H]2C(=O)N3CCC[C@H]3C(=O)N2[C@H]1c1ccc(O)cc1
Found: y

###

Test: E. coli growth modulation, two-sided OD650, primary screen, E. coli filamentation project, strain DRC41, 24 h (AID 1093);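 note: MC1000 strain lacking acrAB efflux and sulA so SOS filamentation is blocked; test concentration not given here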
Details: OD650, 24 h, higher = more signal, called active from +8 up or from −8 down
RECORDED_ENDPOINT: z-score
Reply: number alone, nothing else.

Example results:
COMPOUND_STRING | z-score
CCCC=C(CCC)[C@@H](NC(=O)c1ccc(C(F)(F)F)cc1)c1ccccc1 | -0.773
C#C[C@H](O[Si](C#Cc1ccccc1)(C(C)C)C(C)C)c1ccccc1 | -0.227
CCOC(=O)C[C@H]1[C@H](OC(=O)Cc2ccc3c(c2)OCO3)[C@@H](NC(=O)c2ccc3ccccc3c2)c2cc(OCCCO)ccc2N1C(=O)Cc1ccc(OC)cc1 | 1.28

Lookup: // query z-score value for entry CCN1C(C)=C(C(=O)OC)[C@@H](c2ccccc2)N2C(=O)[C@@]3(C(=O)OC)O[C@@]12[C@@H]1C(=O)N(C)C(=O)[C@@H]13
Found: -0.0517

###

Test: small-molecule microarray binders of probe aLefty2, primary screen, biochemical, biotinylated probe, 635/667 nm fluorescence (AID 1094);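 note: score merges spot fluorescence near 667 nm with spot signal-to-noise ratio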
Details: higher = more signal
RECORDED_ENDPOINT: composite z-score
I'd appreciate a reply containing only the number, no unit.

Lookup: Item under review: CN1C(=O)C2C=CC(C(O)c3ccc(N(C)C)cc3)N(Nc3ccc([N+](=O)[O-])cc3[N+](=O)[O-])C2C1=O (centres undefined) . Reported composite z-score?
Found: 0.452

###

Parameter composite z-score: see the listing below.
Tested on: Sonic hedgehog protein (Shh)
Assay: small-molecule binders of Shh protein, primary screen, biochemical, small-molecule microarray, 635/667 nm fluorescence (AID 1151);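 note: Shh protein binding to compounds spotted on small-molecule microarray slides; score combines spot fluorescence intensity with signal-to-noise across triplicate slides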
Details: small-molecule microarray binding, 635 nm fluorescence; higher = more signal
Please give only the number in your answer, with no unit.

MOLECULE | composite z-score
C[C@@H]1CC[C@H]2C(=O)N3[C@@H](CC[C@@H](C)[C@@H]3c3cccc(N4CCOCC4)c3)C(=O)N2[C@H]1c1cccc(N2CCOCC2)c1 | 0.106
CC[C@H]1C2=C3C(CC[C@H]4C(OC)OC[C@](C)([C@@H]34)N(C(=O)OC(C)(C)C)C2)C(CO)C1CO (stereo partly drawn) | -0.623
COC(=O)C(CC#Cc1ccc2c(c1)[C@]1(C(=O)N2)[C@H](C(=O)N2CCCCCCC2)[C@H]2C(=O)O[C@H](c3ccccc3)[C@H](c3ccccc3)N2[C@@H]1c1ccc(O)cc1)C(=O)OC | -0.657
Cc1ccc(N2C(=O)c3ccccc3[C@](C)(C(=O)O)[C@@H]2c2ccc(CO)cc2)nc1 | -0.751
C=CCN1C(=O)[C@@]2(Cc3ccccc3)N=C(c3ccc(OCCCO)cc3)O[C@H]2c2ccccc21 | 1.28

Lookup: Fill in the blank: the reported composite z-score of COc1ccc([Si](C)(C)[C@H]2[C@H](CCO)O[C@@]3(C(=O)N(Cc4ccc(N5CCCCC5=O)cc4)c4ccccc43)[C@@H]2C)cc1 is ____.
Found: 1.58

Lookup: composite z-score lookup needed for C=C(CCCC)/C(=C/C[C@H](OC(=O)c1ccncc1)c1cccc(OCCO)c1)c1cc(C(=O)OC)ccc1OC , thanks.
Found: 1.61

Lookup: What does the data say about its composite z-score? Entry: O=C(CS)NCCCCCNC(=O)[C@H]1C[C@H]2C(=O)N3CCC[C@H]3C(=O)N2[C@H]1c1ccc(O)cc1
Found: 1.63

Lookup: Look up composite z-score: C=CCC(OC(C)=O)[C@@H]1[C@@H](N(Cc2cc3ccccc3o2)C(=O)c2ccc(C)cc2)c2cc(OCCCO)ccc2N1C(=O)c1ccc2ccccc2n1 (stereo partly drawn)
Found: 0.609

Lookup: Would you kindly share the measured composite z-score for CCOC(=O)C[C@H]1[C@H](OC(=O)Cc2ccc3c(c2)OCO3)[C@@H](NC(=O)c2ccc3ccccc3c2)c2cc(OCCCO)ccc2N1C(=O)Cc1ccc(OC)cc1 ?
Found: 0.673

Lookup: Find the recorded composite z-score belonging to Cc1ccc(S[C@]2(C(=O)NCCN3CCOCC3)CC(=O)N(C3Cc4ccccc4C3)[C@@H]2c2ccc(CO)cc2I)cc1 and report it.
Found: -0.678

###

Biological target: Fibroblast growth factor 2 (Homo sapiens) (UniProt P09038)
Sequence (P09038 whole entry, looked up): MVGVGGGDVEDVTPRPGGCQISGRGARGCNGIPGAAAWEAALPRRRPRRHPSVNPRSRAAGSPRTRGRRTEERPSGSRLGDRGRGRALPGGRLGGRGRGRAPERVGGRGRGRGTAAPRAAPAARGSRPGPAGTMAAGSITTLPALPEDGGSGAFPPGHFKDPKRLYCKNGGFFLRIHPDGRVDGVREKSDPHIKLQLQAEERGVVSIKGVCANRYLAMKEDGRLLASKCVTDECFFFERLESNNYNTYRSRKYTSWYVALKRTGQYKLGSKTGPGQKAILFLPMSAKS
Test: FGF2 binders on small-molecule microarrays, primary screen, biochemical, small-molecule microarray, 635/667 nm fluorescence (AID 1133)
Conditions: small-molecule microarray binding, FGF2, fluorescence 635/667; higher = more signal
Assign true to entries whose composite z-score meets or exceeds 0.8; assign false to the rest.

COMPOUND | CLASSIFICATION
CCCNC(=O)[C@@H]1c2ccccc2C(=O)N(Cc2cc(F)cc(C(F)(F)F)c2)[C@H]1c1ccc(CO)cc1 | false
C=CC[C@@]1(C(=O)N2CCOCC2)N=C(c2ccc(OCCCO)cc2)O[C@@H]1c1ccccc1 | false
Cc1cc(C)c(C(O)C2C=CC3C(=O)N(C)C(=O)C3N2N2CCCCC2)c(C)c1 (stereo not drawn) | true
O=C(NCc1ccccc1)[C@@]1(Cc2ccccc2)COC(c2ccc(OCCCO)cc2)=N1 | false

Lookup: Is it the case that C=CCOC(=O)[C@@H]1[C@H]2C(=O)O[C@H](c3ccccc3)[C@H](c3ccccc3)N2[C@H](c2ccc(OCCOC(=O)[C@H]3C[C@H]4C(=O)N[C@@H](CCCCNC(C)=O)C(=O)N4[C@H]3c3ccc(O)cc3)cc2)[C@@]12C(=O)Nc1ccc(I)cc12 has composite z-score reaching or exceeding 0.8?
Found: true

Lookup: Given the entry COc1ccc(C(O)C2C=CC3C(=O)N(C)C(=O)C3N2N2CCCCC2)cc1OCc1ccccc1 (stereo not drawn) , answer whether its composite z-score meets or surpasses 0.8.
Found: false

Lookup: State whether the measured composite z-score reaches 0.8, counting equality as reaching it, for COc1ccc([Si](C)(C)[C@@H]2[C@@H](CCO)O[C@]3(C(=O)N(Cc4ccccc4)c4ccccc43)[C@H]2C)cc1
Found: true

Lookup: Evaluate CC(C)[Si](OCCCNS(=O)(=O)c1ccc(Br)cc1)(C(C)C)C(C)C : composite z-score at minimum 0.8?
Found: true
